PROTOCOL NOTES: inhibitors of poly I:C-induced TLR3 signaling, primary screen, cell-based, poly I:C stimulus, luciferase, 10K MLSCN set (AID 602277)
STATED CONDITIONS: HEK293-TLR3 RL24 IRF3 luciferase reporter, at 10 µM, stronger effect = higher value
The source made the active and inactive calls.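 Rule for the calls: active = inhibition of the reporter signal at or above 50%; inactive = inhibition below 50%.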
READOUT LABEL: inhibition

Before answering, review these 5 worked examples.
>>> result("Cc1nc(/N=C(\\N)Nc2ccccc2)nc2ccccc12")
"-21.7% (inactive)"
>>> result("COc1cccc(C2C(C(=O)c3cc4ccccc4o3)=C(O)C(=O)N2CCN(C)C)c1OC (stereo unspecified)")
"6.82% (inactive)"
>>> result("CCCCc1nc(NCCN2CCOCC2)c(C#N)c2c1COC(C)(C)C2")
"10.1% (inactive)"
>>> result("CN(C)/C=C1\\N=C(c2ccc(Cl)cc2Cl)OC1=O")
"-177% (inactive)"
>>> result("COc1ccc2c(c1)n([O-])c1c([n+]2=O)CCC1")
"99.2% (active)"

QUERY: Which inhibition is reported for this compound? NC(Cc1ccc(Oc2ccc(O)cc2)cc1)C(=O)O (stereo unspecified)
RESULT: 24.4% (inactive)

###

molecules and their reported z-score
PROTOCOL NOTES: DUSP6 inhibitors restoring Erk phosphorylation by chemical complementation, primary imaging in DUSP6-transfected HeLa (AID 609)
STATED CONDITIONS: HeLa MKP-3 transfected, phospho-Erk imaging KS statistic; measured here: nuclear c-Myc green intensity z-score; at 10 µM; cells stimulated with TPA for 15 min
In your answer, state the number alone without any accompanying words.

>>> readout_number("COC(=O)c1cccc(Nc2cc(C)nc(-c3ccccc3O)n2)c1")
0.157
>>> readout_number("[N-]=[N+]=CC(=O)c1ccnc(C(=O)C=[N+]=[N-])c1")
-1.66

In the following, a different molecule is considered.
QUERY: Which z-score is reported for this molecule? COc1cccc(Cn2c(OCC3CCCO3)nc3c2c(=O)n(C)c(=O)n3C)c1 (stereo not drawn)
RESULT: 0.171

###

SYSTEM UNDER TEST: Alpha-2C adrenergic receptor (Homo sapiens) (UniProt P18825)
Sequence (P18825 whole entry, looked up): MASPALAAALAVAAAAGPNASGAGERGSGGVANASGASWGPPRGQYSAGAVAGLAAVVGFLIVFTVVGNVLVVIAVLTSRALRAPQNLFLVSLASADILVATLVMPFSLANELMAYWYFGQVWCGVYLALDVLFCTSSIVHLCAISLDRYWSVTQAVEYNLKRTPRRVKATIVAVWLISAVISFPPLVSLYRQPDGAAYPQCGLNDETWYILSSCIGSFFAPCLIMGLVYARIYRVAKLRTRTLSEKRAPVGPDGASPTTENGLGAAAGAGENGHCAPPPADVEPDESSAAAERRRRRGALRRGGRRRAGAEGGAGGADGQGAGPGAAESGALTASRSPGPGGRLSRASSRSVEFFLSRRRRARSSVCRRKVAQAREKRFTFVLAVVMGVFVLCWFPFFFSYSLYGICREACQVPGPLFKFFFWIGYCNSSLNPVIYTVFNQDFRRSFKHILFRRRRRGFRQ
PROTOCOL NOTES: modulators of alpha2C/GIRK thallium flux, primary screen, cell-based, HEK293 alpha2C/GIRK1/2 (AID 624);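 note: slope of fluorescence ratio to pre-addition baseline per second over 15 to 24 s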
STATED CONDITIONS: thallium flux BTC fluorescence, at 10 µM, actives lie on both sides
Active and inactive are the calls of the source.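 Rule for the calls: active = fluorescence slope after compound addition differing from the mean of all screened samples at 99.7% confidence, in either direction; inactive = the rest.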
READOUT LABEL: slope

>>> result("O=C(O)CC(NCc1ccco1)C(=O)OCCc1ccccc1 (centres undefined)")
"0.00596 (inactive)"

QUERY: Recorded slope for CN1CCc2c(sc3c2C(=O)NC(c2ccco2)N3)C1 (centres undefined) with Alpha-2C adrenergic receptor (Homo sapiens) (UniProt P18825), please?
RESULT: 0.00594 (inactive)

QUERY: Recorded slope for N#Cc1c(NC(=O)CCC(=O)O)sc2c1CCCC2 with Alpha-2C adrenergic receptor (Homo sapiens) (UniProt P18825), please?
RESULT: 0.00575 (inactive)

QUERY: Recorded slope for C=CCOc1nc2c(c(=O)n(C)c(=O)n2C)n1Cc1ccc(Cl)cc1Cl with Alpha-2C adrenergic receptor (Homo sapiens) (UniProt P18825), please?
RESULT: 0.00522 (inactive)

QUERY: Recorded slope for OC[C@H]1O[C@@H](n2cnc3c(Nc4ccccc4)ncnc32)[C@H](O)[C@@H]1O with Alpha-2C adrenergic receptor (Homo sapiens) (UniProt P18825), please?
RESULT: 0.00784 (inactive)

QUERY: Recorded slope for CCC1(C)Cc2c(sc3c2c(=O)n(C)c2nnc(SCc4ccc5c(c4)OCO5)n32)CO1 (centres undefined) with Alpha-2C adrenergic receptor (Homo sapiens) (UniProt P18825), please?
RESULT: 0.00552 (inactive)

QUERY: Recorded slope for CCCCc1c(O)nc(SCCN(C)C)n(-c2ccccc2)c1=O with Alpha-2C adrenergic receptor (Homo sapiens) (UniProt P18825), please?
RESULT: 0.00653 (inactive)

QUERY: Recorded slope for CCCOc1ccc(/C(O)=C2/C(=O)C(=O)N(CCN(C)C)C2c2ccc(OC)c(OC)c2)cc1 (centres undefined) with Alpha-2C adrenergic receptor (Homo sapiens) (UniProt P18825), please?
RESULT: 0.00495 (inactive)

QUERY: Recorded slope for Cc1cc(C)n(C(=O)CSc2nc3ccccc3o2)n1 with Alpha-2C adrenergic receptor (Homo sapiens) (UniProt P18825), please?
RESULT: 0.00455 (inactive)

###

PROTOCOL NOTES: inhibitors of TNFa-induced NFkB p65 translocation, primary screen, imaging, HUVEC, MLSMR starter and 10KST1 sets (AID 438);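 note: compound added about 3h40 before a 20 min TNFalpha stimulation; signal is the nuclear over cytoplasmic p65 intensity ratio per well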
STATED CONDITIONS: HUVEC TNFa-induced p65 nuclear translocation; at 2 µM, stronger effect = higher value, 0% TNFa-plus-vehicle, 100% no-TNFa wells
READOUT LABEL: inhibition (%)
Give a bare numeral; the unit % is implied.

Before answering, review these 10 worked examples.
>>> readout_number("COc1cccc(OC)c1C(=O)N1CCN(S(=O)(=O)c2ccc(C)cc2)CC1")
-7.5
>>> readout_number("CCn1cc(C(=O)NCCc2ccccc2)c(=O)c2cc(F)c(N3CCN(C)CC3)cc21")
-8.4
>>> readout_number("Nc1nonc1-c1noc(N2CCOCC2)n1")
-10.9
>>> readout_number("COc1cccc(-c2nc(NCc3ccco3)c3ccccc3n2)c1O")
3
>>> readout_number("COc1cc(-c2nn3c(COc4ccccc4)nnc3s2)cc(OC)c1OC")
-2.1
>>> readout_number("CN1CCC(=C2c3ccccc3C=Cc3ccccc32)CC1")
-6
>>> readout_number("CCOc1cccc(C2C(C#N)=C(N)Oc3cc(C)oc(=O)c32)c1OCC (stereo not drawn)")
-24.9
>>> readout_number("Brc1cccc(-c2cnc3n2CCCCC3)c1")
-12.1
>>> readout_number("COc1cc(NC2=CC(=O)CC(C)(C)C2)cc(OC)c1OC")
-15
>>> readout_number("CSc1nc(Oc2ccc(=O)[nH]n2)nc(N(C)C)n1")
-0.7

In the following, a different compound is considered.
QUERY: Which inhibition is reported for this compound? CC1Cc2ccccc2N1NC(=O)c1ccc(Cl)c(S(N)(=O)=O)c1 (stereo not drawn)
RESULT: -3.7

###

SYSTEM UNDER TEST: Voltage-gated potassium channel subunit beta-2 (Rattus norvegicus) (UniProt P62483)
Sequence (P62483 whole entry, looked up): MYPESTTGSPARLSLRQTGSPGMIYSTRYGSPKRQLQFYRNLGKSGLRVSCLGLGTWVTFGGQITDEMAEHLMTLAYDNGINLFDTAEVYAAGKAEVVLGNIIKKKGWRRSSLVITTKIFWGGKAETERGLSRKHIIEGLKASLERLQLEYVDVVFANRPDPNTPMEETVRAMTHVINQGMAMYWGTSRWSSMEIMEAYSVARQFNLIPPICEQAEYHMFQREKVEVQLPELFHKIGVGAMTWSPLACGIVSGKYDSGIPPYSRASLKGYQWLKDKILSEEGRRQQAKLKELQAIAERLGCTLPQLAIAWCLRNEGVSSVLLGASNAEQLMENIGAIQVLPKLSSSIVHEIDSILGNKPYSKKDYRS
PROTOCOL NOTES: KvBeta positive modulators, primary screen, biochemical, NADPH fluorescence (AID 623);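 note: fluorescence intensity change per second fitted from 20 to 320 s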
STATED CONDITIONS: Recombinant KvBeta, NADPH fluorescence decrease slope, 10 min; at 10 µM; stronger effect = lower value
READOUT LABEL: NADPH fluorescence slope
In your answer, state the number alone without any accompanying words.

QUERY: Which NADPH fluorescence slope is reported for this molecule? c1ccc(C2Nc3ccccc3-c3nc4ccccc4n32)nc1 (stereo not drawn)
RESULT: -1.1e-05

###

PROTOCOL NOTES: inhibitors of TNFa-induced NFkB p65 translocation, primary screen, imaging, HUVEC, MLSMR starter and 10KST1 sets (AID 438);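 note: compound added about 3h40 before a 20 min TNFalpha stimulation; signal is the nuclear over cytoplasmic p65 intensity ratio per well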
STATED CONDITIONS: HUVEC TNFa-induced p65 nuclear translocation; at 2 µM, stronger effect = higher value, 0% TNFa-plus-vehicle, 100% no-TNFa wells
compounds and their reported inhibition
Give a bare numeral; the unit % is implied.

>>> readout_number("COC(=O)c1[nH]c2cc(OC)ccc2c1NC(=O)CCN1CCCC(C)(C)C1")
-5.3
>>> readout_number("COc1cc([C@@H]2c3cc4c(cc3[C@H](O)[C@H]3COC(=O)[C@H]23)OCO4)cc(OC)c1OC")
21.5

QUERY: Which inhibition is reported for this compound? CCCC(=O)Nc1ncnc2c1ncn2[C@@H]1O[C@@H]2COP(=O)(O)O[C@H]2[C@H]1OC(=O)CCC
RESULT: 15.4

###

compounds and their reported inhibition
PROTOCOL NOTES: inhibitors of TNFa-induced NFkB p65 translocation, primary screen, imaging, HUVEC, MLSMR starter and 10KST1 sets (AID 438);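 note: compound added about 3h40 before a 20 min TNFalpha stimulation; signal is the nuclear over cytoplasmic p65 intensity ratio per well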
STATED CONDITIONS: HUVEC TNFa-induced p65 nuclear translocation; at 2 µM, stronger effect = higher value, 0% TNFa-plus-vehicle, 100% no-TNFa wells
Give a bare numeral; the unit % is implied.

QUERY: Which inhibition is reported for this compound? COc1ccc(C2CC(C(F)(F)F)n3ncc(C(=O)Nc4cccc(O)c4)c3N2)cc1OC (centres undefined)
RESULT: -6.1

QUERY: Which inhibition is reported for this compound? COc1ccccc1-n1c(=O)c2c3c(sc2n2c(SC(C)C)nnc12)CCC3
RESULT: -11.3

QUERY: Which inhibition is reported for this compound? Cc1cccc(Nc2ncnc3ccccc23)c1
RESULT: -5.2

QUERY: Which inhibition is reported for this compound? CCN(CCCCOC(=O)c1ccc(OC)c(OC)c1)C(C)Cc1ccc(OC)cc1 (centres undefined)
RESULT: -4.8

Reference source: PubChem BioAssay
